experiment: NCI Yeast Anticancer Drug Screen. Data for the mec2-1 strain (AID 157); conditions: S. cerevisiae mec2-1 strain, at 5.0 µM (retest, dose inferred, filed as 0.5)
About 79,000 compounds went through this panel and 15% of them were active in at least one assay; those are over-represented in the sample as a whole. The source made the active and inactive calls. No stated cut-off is given here; in the data, active means growth inhibition above about 70%; inactive means the rest.
Hi! Could you answer with just one of these? active, inactive

Known results for compounds:
- compound: "CCCCCCCCCCOC(=O)c1cc[n+](C)cc1"
  cat: "inactive"
- compound: "CCn1c(=O)cc2n(C)c3ccccc3n2c1=O"
  cat: "inactive"
- compound: "O=[N+]([O-])c1ccc2c(c1)Cc1cc(Cl)ccc1-2"
  cat: "inactive"
- compound: "O=[N+]([O-])c1cccc(C=Nc2ccccc2O)c1"
  cat: "inactive"
- compound: "O=[N+]([O-])c1ccc(Sc2c3ccccc3nc3ccccc23)nc1"
  cat: "active"
- compound: "CCOC(=O)/C(=C\\c1cccc(Br)c1)C(C)=O"
  cat: "inactive"
- compound: "CC1(c2ccc(O)cc2)CC(C)(c2ccc(O)cc2)C1 (stereo not drawn)"
  cat: "inactive"
- compound: "O=C1CCC(Cc2ccc(Br)cc2)C(=O)N1 (stereo not drawn)"
  cat: "inactive"

Query :: Tell me the assay call for C/C(=N\NC(=S)Nc1ccc(C)cc1)c1nc2ncccc2[nH]1 please.
Result :: inactive

Query :: Also CCC(=O)Oc1c(Cl)cc(Cl)c(Cl)c1Cl , if possible.
Result :: inactive

Query :: Also O=C(CC(O)(C(F)(F)Cl)C(F)(F)Cl)CC(O)(C(F)(F)Cl)C(F)(F)Cl , if possible.
Result :: active

Query :: Also CNC1c2ccccc2C(=O)c2cc3c(cc21)OCCOCCOCCOCCO3 (stereo not drawn) , if possible.
Result :: inactive

Query :: Also CC(C)(CN1CCCCC1)C(=O)CC(SCCS(=O)(=O)O)c1ccc(Cl)c(Cl)c1 (stereo not drawn) , if possible.
Result :: inactive

###

Listed here: items and their measured growth inhibition.
experiment: NCI Yeast Anticancer Drug Screen. Data for the cln2 rad14 strain (AID 165);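 further: 0% = growth equal to vehicle treated cultures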; settings: S. cerevisiae cln2 rad14 strain, at 50.0 µM, stronger effect = higher value
The panel holds about 79,000 compounds, 15% with a hit somewhere; the sample as a whole holds those more often.
Numeric answer only, unit % assumed.

// below: answered compounds
- compound: "COC(C)(C)[C@@H]1CCCN1C1=C(C)C(=O)OC1"
  growth inhibition (%): 24.6
- compound: "CCOC(=O)c1sc(N/N=C2\\NC(=O)/C(=C/c3ccc([N+](=O)[O-])cc3)S2)nc1C"
  growth inhibition (%): 87.1
- compound: "Cc1cc(SCC(=O)c2ccc(Cl)cc2)cc(C)[o+]1"
  growth inhibition (%): 88.7
- compound: "COc1ccc(CCCCC(=O)O)cc1O"
  growth inhibition (%): 61.9

Query :: Endpoint output: growth inhibition of CC(C)(C)C(=O)CC(Cc1nccc2ccccc12)c1ccco1 (configuration not stated) . Value?
Result :: 98

Query :: Also CN1CC(CN2CCCCC2)C(O)C(c2ccccc2)C1 (configuration not stated) , if possible.
Result :: 34.4

Query :: Also CC(C)=NOCCOC(=O)C(c1ccccc1)c1ccccc1 , if possible.
Result :: 39.6

Query :: Also COc1ccccc1NC(=O)CC(=O)N1N=C(C)C(N=Nc2ccc(I)cc2)C1=O (configuration not stated) , if possible.
Result :: -39.5

Query :: Also CC(NNC(=S)N1CCCC1)c1cccnn1 (configuration not stated) , if possible.
Result :: 90.5

###

Listed here: items and their measured growth inhibition.
assay: NCI Yeast Anticancer Drug Screen. Data for the mlh1 rad18 strain (AID 175); conditions: S. cerevisiae mlh1 rad18 strain growth inhibition; at 50.0 µM; stronger effect = higher value
Compounds without any hit were thinned out: in the full panel of roughly 79,000, 15% have a hit. Activity calls are given as the source filed them. Rule as the data show it: active = growth inhibition above about 70%; inactive = the rest.

Query :: Endpoint output: growth inhibition of COc1cccc(C=O)c1O . Value?
Result :: 62.5% (inactive)

Query :: Also O=C(O)CCC(=O)NCCNC(=O)CC(=O)O , if possible.
Result :: 9% (inactive)

Query :: Also CCOC(=O)C1C(c2cccc(OC)c2O)c2cc3c(cc2OC1(C)N1CCCC1)OCO3 (centres undefined) , if possible.
Result :: 50.5% (inactive)

Query :: Also O=[N+]([O-])/C(=C\c1cccs1)c1ccccc1 , if possible.
Result :: 99.3% (active)

Query :: Also CC1(C)OC2COC3(CNO)OC(C)(C)OC3C2O1 (centres undefined) , if possible.
Result :: 69.7% (inactive)

Query :: Also Cc1ccc[n+](CC(=O)C2CCC3C4CC=C5CC(O)CCC5(C)C4CCC23C)c1 (centres undefined) , if possible.
Result :: 98% (active)

Query :: Also C=C(CN(C)C)C(=O)c1ccccc1[N+](=O)[O-] , if possible.
Result :: 66.8% (inactive)

Query :: Also CN(/N=C/c1ccc([N+](=O)[O-])o1)C(N)=O , if possible.
Result :: 89.4% (active)

Query :: Also Cc1cc(O)c(C(=O)/C=C/c2cccnc2)c(=O)[nH]1 , if possible.
Result :: 93% (active)

Query :: Also O=C(Oc1c(Cl)cc(Cl)c(Cl)c1Cl)Oc1c(Cl)cc(Cl)c(Cl)c1Cl , if possible.
Result :: 0.15% (inactive)

Query :: Also CC(C)/C=C1\CCC(CN2CCOCC2)C1=O (centres undefined) , if possible.
Result :: 67.2% (inactive)

Query :: Also CN(C)c1ccc(/C=N/N=C(/C#N)[S][Sn]([S]/C(C#N)=N/N=C/c2ccc(N(C)C)cc2)([c]2ccccc2)[c]2ccccc2)cc1 , if possible.
Result :: 97.4% (active)

###

assay: NCI Yeast Anticancer Drug Screen. Data for the cln2 rad14 strain (AID 165);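 further: 0% = growth equal to vehicle treated cultures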; conditions: S. cerevisiae cln2 rad14 strain, at 50.0 µM
About 79,000 compounds went through this panel and 15% of them were active in at least one assay; those are over-represented in the sample as a whole. Calls of active or inactive are those of the source. Rule as the data show it: active = growth inhibition above about 70%; inactive = the rest.
Hi! Could you answer with just one of these? active, inactive

- compound: "COC(=O)CC1c2cc(OC)c3cccc(OC)c3c2CCC1(C)C(=O)OC (centres undefined)"
  cat: "active"

Query :: Tell me the assay call for COc1ccc(/C=N/NS(=O)(=O)c2ccc(C)cc2)cc1 please.
Result :: inactive

Query :: Also C=CCCCCn1c2ccccc2c2c(C)c3c[n+](C)ccc3c(C)c21 , if possible.
Result :: active

Query :: Also CCCC(=O)Oc1c(Br)cc(Br)cc1Br , if possible.
Result :: inactive

Query :: Also N#CSc1ccc(O)c2ccccc12 , if possible.
Result :: active

Query :: Also Cc1ccc(S(=O)(=O)Nc2ccccc2C=O)cc1 , if possible.
Result :: active

Query :: Also COC(=O)C1=C(C)NC(C)=C(C(=O)OC)C1c1ccc(/[N+]([O-])=C/c2ccccc2)cc1 , if possible.
Result :: inactive

Query :: Also CC(Cl)C(=O)Nc1cc2ccccc2oc1=O (centres undefined) , if possible.
Result :: inactive

Query :: Also O=C(N/C(=C\c1ccc([N+](=O)[O-])cc1)c1nc2ccccc2s1)c1ccccc1 , if possible.
Result :: inactive

Query :: Also O=C1CC(O)CC(=O)C1=C(O)CCCCCCCCCCc1ccccc1 (centres undefined) , if possible.
Result :: active

Query :: Also C=CCOC(=O)SC(=S)OCN(C)C , if possible.
Result :: active

Query :: Also c1ccc2c(c1)Sc1nccc3ccnc-2c13 , if possible.
Result :: active

Query :: Also CC(C)n1nnc2c3ccccc3c3ccccc3c21 , if possible.
Result :: inactive

Query :: Also Cc1ccc(S(=O)(=O)NCCCOS(=O)(=O)c2ccc(C)cc2)cc1 , if possible.
Result :: inactive

Query :: Also O=S1(=O)CCN(c2ccccc2CC(c2c[nH]c3ccccc23)c2c[nH]c3ccccc23)CC1 , if possible.
Result :: active

Query :: Also CCC[CH2][Sn]([CH2]CCC)([O]N(C)C(=O)c1ccc(Br)cc1)[O]N(C)C(=O)c1ccc(Br)cc1 , if possible.
Result :: active

###

Test: NCI Yeast Anticancer Drug Screen. Data for the bub3 strain (AID 167)
Details: S. cerevisiae bub3 mutant strain, at 5.0 µM (retest, dose inferred, filed as 0.5)
Description: Growth inhibition of yeast strains with defined genetic alterations is measured as a screen for potential anti-cancer activity. Selected strains with alterations in DNA damage repair or cell cycle control were exposed to compounds and growth inhibition was measured relative to vehicle treated controls. The strain used in this assay is bub3
The panel holds about 79,000 compounds, 15% with a hit somewhere; the sample as a whole holds those more often. Calls of active or inactive are those of the source. Cut-off read from the data, not from the text of the source: active = growth inhibition above about 70%; inactive = the rest.
Hi! Could you answer with just one of these? active, inactive

Known results for molecules:
- molecule: "CCOC(=O)C(NS(=O)(=O)c1ccccc1)(C(F)(F)F)P(=O)(OCC(C)C)OCC(C)C (configuration not stated)"
  cat: "inactive"
- molecule: "Cc1ccccc1Sc1ccccc1[N+](=O)[O-]"
  cat: "inactive"

Query :: Tell me the assay call for CC1(C)/C=C/C2=Nc3cc(Br)c(Br)c(Br)c3C23CC(=O)N3/C=C(\Cl)c2nc(Br)[nH]c21 (configuration not stated) please.
Result :: inactive

Query :: Also O=C1/C(=C(/Br)I)c2ccccc2-c2ccccc21 , if possible.
Result :: active

Query :: Also CN(C)c1ccc(C=Nc2cncc3ccccc23)cc1 , if possible.
Result :: inactive

Query :: Also CCOC(=O)c1cnn(-c2ccccc2)c1N , if possible.
Result :: inactive
